# Test system: rat chronic carcinogenicity bioassay, TD50
# TEST_DETAILS: DSSTox (CPDBAS) Carcinogenic Potency Database Summary Rat Bioassay Results
# SETTINGS: TD50_Rat_Note: TD50 is harmonic mean of more than one positive test; TargetSites_Rat_Female: liver; lung; vascular system; active compounds read low

{"SMILES_ENTRY": "CC(=O)CN(CC(C)=O)N=O", "Potency": "0.491 mg/kg/day"}

###

# System: rat chronic carcinogenicity bioassay, TD50
# TEST_DETAILS: DSSTox (CPDBAS) Carcinogenic Potency Database Summary Rat Bioassay Results
# SETTINGS: TD50_Rat_Note: TD50 value is overestimated as upper 99% confidence limit from study with 100% tumor incidence but no lifetable; TD50 is; active compounds read low

{"SMILES_ENTRY": "CC1=C2C(=CO[C@@H](C)[C@@H]2C)C(=O)C(C(=O)O)=C1O", "Potency": "7.48 mg/kg/day"}

###

# Test system: rat chronic carcinogenicity bioassay, TD50
# TEST_DETAILS: DSSTox (CPDBAS) Carcinogenic Potency Database Summary Rat Bioassay Results
# SETTINGS: TD50_Rat_Note: TD50 is harmonic mean of more than one positive test; TargetSites_Rat_Female: clitoral gland; hematopoietic system; mammary gland; nervous system; oral cavity; stomach; thyroid gland; active compounds read low
EXPERIMENTAL_READOUT: Potency

{"COMPOUND": "OCC1CO1 (stereo unspecified)", "MEASUREMENT": "4.28 mg/kg/day"}

###

Listed next: entries and their corresponding Potency.
# Test system: rat chronic carcinogenicity bioassay, TD50
# TEST_DETAILS: DSSTox (CPDBAS) Carcinogenic Potency Database Summary Rat Bioassay Results
# SETTINGS: TD50_Rat_Note: TD50 is harmonic mean of more than one positive test; greater than ten-fold variation among TD50 values for positive res; TargetSites_Rat_Female: mammary gland; active compounds read low

{"SMILES_ENTRY": "C=CC=C", "Potency": "261 mg/kg/day"}
{"SMILES_ENTRY": "NC(=O)/C(=C\\c1ccc([N+](=O)[O-])o1)c1ccco1", "Potency": "29.4 mg/kg/day"}

###

# Test system: rat chronic carcinogenicity bioassay, TD50
# TEST_DETAILS: DSSTox (CPDBAS) Carcinogenic Potency Database Summary Rat Bioassay Results
# SETTINGS: TargetSites_Rat_Female: kidney; lung; mammary gland; stomach; active compounds read low
Quick reference for Potency among some compounds
EXPERIMENTAL_READOUT: Potency

{"SMILES_ENTRY": "Nc1nnc(-c2ccc([N+](=O)[O-])o2)s1", "EXPERIMENTAL_READOUT": "Potency", "MEASUREMENT": "0.662 mg/kg/day"}
{"SMILES_ENTRY": "Nc1nnc(-c2ccc([N+](=O)[O-])o2)o1", "EXPERIMENTAL_READOUT": "Potency", "MEASUREMENT": "3.67 mg/kg/day"}

###

# Test system: rat chronic carcinogenicity bioassay, TD50
# TEST_DETAILS: DSSTox (CPDBAS) Carcinogenic Potency Database Summary Rat Bioassay Results
# SETTINGS: TD50_Rat_Note: TD50 is harmonic mean of more than one positive test; TargetSites_Rat_Female: hematopoietic system; active compounds read low
Recorded measurements of Potency, one per entry

{"SMILES_ENTRY": "COC(C)(C)C", "MEASUREMENT_TARGET": "rat chronic carcinogenicity bioassay, TD50", "Potency": "702 mg/kg/day"}
{"SMILES_ENTRY": "Oc1ccc(O)cc1", "MEASUREMENT_TARGET": "rat chronic carcinogenicity bioassay, TD50", "Potency": "82.8 mg/kg/day"}
{"SMILES_ENTRY": "ClC(Cl)=C(Cl)Cl", "MEASUREMENT_TARGET": "rat chronic carcinogenicity bioassay, TD50", "Potency": "145 mg/kg/day"}

###

# Tested on: rat chronic carcinogenicity bioassay, TD50
# TEST_DETAILS: DSSTox (CPDBAS) Carcinogenic Potency Database Summary Rat Bioassay Results
# SETTINGS: TargetSites_Rat_BothSexes: hematopoietic system; liver; mammary gland; active compounds read low
EXPERIMENTAL_READOUT: Potency

{"SMILES_ENTRY": "Nc1ccc(-c2ccc(N)cc2)cc1", "EXPERIMENTAL_READOUT": "Potency", "MEASUREMENT": "1.73 mg/kg/day"}

###

# Tested on: rat chronic carcinogenicity bioassay, TD50
# TEST_DETAILS: DSSTox (CPDBAS) Carcinogenic Potency Database Summary Rat Bioassay Results
# SETTINGS: TargetSites_Rat_Female: clitoral gland; active compounds read low

{"SMILES_ENTRY": "O=C(O)c1ccc([N+](=O)[O-])cc1", "MEASUREMENT_TARGET": "rat chronic carcinogenicity bioassay, TD50", "Potency": "287 mg/kg/day"}
{"SMILES_ENTRY": "Cc1ccc([N+](=O)[O-])cc1", "MEASUREMENT_TARGET": "rat chronic carcinogenicity bioassay, TD50", "Potency": "257 mg/kg/day"}

###

# System: rat chronic carcinogenicity bioassay, TD50
# TEST_DETAILS: DSSTox (CPDBAS) Carcinogenic Potency Database Summary Rat Bioassay Results
# SETTINGS: TD50_Rat_Note: TD50 is harmonic mean of more than one positive test; harmonic mean of TD50 includes a value for upper 99% confidence li; TargetSites_Rat_Female: hematopoietic system; active compounds read low

{"SMILES_ENTRY": "CCCN(N=O)C(N)=O", "Potency": "3.77 mg/kg/day"}

###

# Test system: rat chronic carcinogenicity bioassay, TD50
# TEST_DETAILS: DSSTox (CPDBAS) Carcinogenic Potency Database Summary Rat Bioassay Results
# SETTINGS: TD50_Rat_Note: no positive results are statistically significant; TargetSites_Rat_Female: no positive results; active compounds read low

{"SMILES_ENTRY": "CCBr", "Potency": "149 mg/kg/day"}

###

Below, each of the compounds is paired with its reported Potency value.
# System: rat chronic carcinogenicity bioassay, TD50
# TEST_DETAILS: DSSTox (CPDBAS) Carcinogenic Potency Database Summary Rat Bioassay Results
# SETTINGS: TargetSites_Rat_Female: esophagus; oral cavity; stomach; active compounds read low
# Source text: The Carcinogenic Potency Database (CPDB) is a unique and widely used international resource of the results of over 6500 chronic, long-term animal cancer tests on over 1500 chemical substances. The CPDB provides easy access to the bioassay literature, with qualitative and quantitative analyses of both positive and negative experiments that have been published over the past 50 years in the general literature and by the National Cancer Institute/National Toxicology Program. […]
EXPERIMENTAL_READOUT: Potency

{"COMPOUND": "CC(=O)CN(CC(O)CO)N=O (configuration not stated)", "MEASUREMENT": "0.0352 mg/kg/day"}
{"COMPOUND": "CC(O)CN(CC(O)CO)N=O (configuration not stated)", "MEASUREMENT": "0.0535 mg/kg/day"}

###

The following compounds are shown together with reported Potency values.
# Tested on: rat chronic carcinogenicity bioassay, TD50
# TEST_DETAILS: DSSTox (CPDBAS) Carcinogenic Potency Database Summary Rat Bioassay Results
# SETTINGS: TargetSites_Rat_Female: kidney; active compounds read low

{"SMILES_ENTRY": "CCCCC1C(=O)N(c2ccccc2)N(c2ccccc2)C1=O", "MEASUREMENT_TARGET": "rat chronic carcinogenicity bioassay, TD50", "Potency": "1160 mg/kg/day"}
{"SMILES_ENTRY": "c1ccc2occc2c1", "MEASUREMENT_TARGET": "rat chronic carcinogenicity bioassay, TD50", "Potency": "424 mg/kg/day"}
{"SMILES_ENTRY": "O=[N+]([O-])c1ccc(Nc2ccc(Nc3ccccc3)c(S(=O)(=O)O)c2)c([N+](=O)[O-])c1", "MEASUREMENT_TARGET": "rat chronic carcinogenicity bioassay, TD50", "Potency": "1710 mg/kg/day"}
{"SMILES_ENTRY": "NCC(=O)O", "MEASUREMENT_TARGET": "rat chronic carcinogenicity bioassay, TD50", "Potency": "25700 mg/kg/day"}

###

# Test system: rat chronic carcinogenicity bioassay, TD50
# TEST_DETAILS: DSSTox (CPDBAS) Carcinogenic Potency Database Summary Rat Bioassay Results
# SETTINGS: TD50_Rat_Note: positive test results only by intraperitoneal or intravenous injection; TD50 is harmonic mean of more than one positive; TargetSites_Rat_Female: ear Zymbals gland; active compounds read low

{"SMILES_ENTRY": "S=P(N1CC1)(N1CC1)N1CC1", "Potency": "0.164 mg/kg/day"}

###

# System: rat chronic carcinogenicity bioassay, TD50
# TEST_DETAILS: DSSTox (CPDBAS) Carcinogenic Potency Database Summary Rat Bioassay Results
# SETTINGS: TD50_Rat_Note: TD50 is harmonic mean of more than one positive test; harmonic mean of TD50 includes a value for upper 99% confidence li; active compounds read low
EXPERIMENTAL_READOUT: Potency

{"COMPOUND": "Cc1cccc(Nc2cc(Cl)nc(SCC(=O)O)n2)c1C", "MEASUREMENT": "4.36 mg/kg/day"}
{"COMPOUND": "CCSCCC(N)C(=O)O (stereo not drawn)", "MEASUREMENT": "9.76 mg/kg/day"}
{"COMPOUND": "O=NN1CCOC1=O", "MEASUREMENT": "0.385 mg/kg/day"}
